- ASSAY_INFO: Pharmacokinetic parameter pKa for amidine group of compound was evaluated
- Type: physicochemical
READOUT_NAME: pKa
Note: the reply should be a number with no unit written.

N#Cc1ccc(C(=O)N2CCC3(CC2)N=C(N)c2c(F)ccc(F)c2N3)cc1 = 8.4

Would you kindly look at the next entry?
Report pKa, nothing else, for this molecule: N#Cc1ccc(C(=O)N2CCC3(CC2)N=C(N)c2c(F)cccc2N3)cc1
9.1

* * *

- TARGET_ENTITY: UniProtKB P35228
- Sequence (P35228 whole entry): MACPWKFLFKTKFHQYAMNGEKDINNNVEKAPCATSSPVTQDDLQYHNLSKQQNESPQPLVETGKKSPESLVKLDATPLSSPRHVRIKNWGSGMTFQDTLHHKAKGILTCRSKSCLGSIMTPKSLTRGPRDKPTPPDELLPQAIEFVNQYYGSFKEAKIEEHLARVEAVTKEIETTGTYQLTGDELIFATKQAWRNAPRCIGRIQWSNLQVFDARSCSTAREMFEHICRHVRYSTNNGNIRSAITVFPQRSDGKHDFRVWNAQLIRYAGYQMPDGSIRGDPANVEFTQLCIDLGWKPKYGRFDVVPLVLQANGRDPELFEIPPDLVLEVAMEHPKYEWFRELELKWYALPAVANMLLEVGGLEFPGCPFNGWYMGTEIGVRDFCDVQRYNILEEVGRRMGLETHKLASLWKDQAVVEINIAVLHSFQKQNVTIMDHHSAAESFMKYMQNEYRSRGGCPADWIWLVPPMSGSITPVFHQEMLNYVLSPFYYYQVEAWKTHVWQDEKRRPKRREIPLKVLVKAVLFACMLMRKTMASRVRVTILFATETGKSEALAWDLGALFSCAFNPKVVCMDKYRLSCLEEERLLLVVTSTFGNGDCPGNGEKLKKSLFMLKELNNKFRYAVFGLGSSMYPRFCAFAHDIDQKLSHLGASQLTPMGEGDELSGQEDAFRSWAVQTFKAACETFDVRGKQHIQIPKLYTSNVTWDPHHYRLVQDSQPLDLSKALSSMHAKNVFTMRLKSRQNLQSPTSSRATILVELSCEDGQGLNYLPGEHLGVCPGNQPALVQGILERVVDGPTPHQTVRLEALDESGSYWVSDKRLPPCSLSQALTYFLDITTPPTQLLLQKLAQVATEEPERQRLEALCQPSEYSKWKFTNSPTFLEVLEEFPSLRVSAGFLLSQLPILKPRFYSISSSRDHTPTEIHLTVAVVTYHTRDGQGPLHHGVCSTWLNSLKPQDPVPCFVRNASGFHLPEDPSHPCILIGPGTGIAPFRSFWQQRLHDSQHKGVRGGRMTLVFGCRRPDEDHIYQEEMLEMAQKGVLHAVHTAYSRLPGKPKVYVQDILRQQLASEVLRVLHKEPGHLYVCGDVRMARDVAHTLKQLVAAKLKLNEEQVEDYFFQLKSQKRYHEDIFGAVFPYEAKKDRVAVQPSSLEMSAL
pIC50: −log10 of the molar value.
Class definitions on pIC50: I = under 6, II = from 6 up to 7, III = 7 and over

NC1=NC(c2ccccc2)Nc2ccccc21 (stereo unspecified) = I
N#Cc1ccc(C(=O)N2CCC3(CC2)N=C(N)c2c(F)cccc2N3)cc1 = III
N=C(N)NN = I
NC1=NC(c2cccs2)Nc2ccccc21 (stereo unspecified) = II
CCOC(=O)N1CCC2(CC1)N=C(N)c1c(Cl)cccc1N2 = III
NC1=NC(c2ccco2)Nc2c(F)ccc(F)c21 (stereo unspecified) = III
N#Cc1ccc(C(=O)N2CCC3(CC2)N=C(N)c2c(F)ccc(F)c2N3)cc1 = III

Read the next record carefully.
Note: place this compound into its band. Item: CCOC(=O)N1CCC2(CC1)N=C(N)c1sccc1N2
II
